STUDY_TARGET: Adenosine receptor A2b (Homo sapiens) (UniProt P29275)
Sequence (P29275 whole entry): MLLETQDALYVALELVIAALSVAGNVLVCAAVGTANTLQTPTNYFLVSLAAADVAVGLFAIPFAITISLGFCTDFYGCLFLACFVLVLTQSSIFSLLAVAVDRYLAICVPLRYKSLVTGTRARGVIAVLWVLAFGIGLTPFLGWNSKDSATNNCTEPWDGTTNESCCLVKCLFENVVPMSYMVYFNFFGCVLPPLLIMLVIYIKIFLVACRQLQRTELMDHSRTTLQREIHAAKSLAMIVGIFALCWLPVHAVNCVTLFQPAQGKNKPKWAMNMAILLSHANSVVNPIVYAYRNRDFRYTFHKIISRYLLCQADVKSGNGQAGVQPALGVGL
ASSAY_PROTOCOL: Displacement of [3H]DPCPX from recombinant human adenosine A2B receptor expressed in HEK293 cells at 0.01 uM
Please provide measured inhibition for the entries that follow.
Write down the numeric answer in % and omit the unit.

Q: Returns the measured inhibition for the input compound. Input: CCCn1c(=O)c2[nH]c(-c3ccc(OCC(=O)Nc4ccc(C(=O)NCCc5ccc(OC)cc5)cc4)cc3)cc2n(CCC)c1=O
Ans: 21

Q: Continue with CCCn1c(=O)c2[nH]c(-c3ccc(OCC(=O)Nc4ccc(OCc5ccccc5)cc4)cc3)cc2n(CCC)c1=O
Ans: 49

Q: Continue with CCCn1c(=O)c2[nH]c(-c3ccc(OCC(=O)Nc4cccc(C)n4)cc3)cc2n(CCC)c1=O
Ans: 20

Q: Continue with CN(Cc1ccccc1)C(=O)COc1ccc(-c2cc3c([nH]2)c(=O)n(C)c(=O)n3C)cc1
Ans: 10

Q: Continue with CCCn1c(=O)n(C)c(=O)c2[nH]c(-c3ccc(OCC(=O)Nc4ccc(F)cc4)cc3)cc21
Ans: 43

Q: Continue with CCCn1c(=O)c2[nH]c(-c3ccc(OCC(=O)Nc4ccc(C(=O)c5ccccc5)cc4)cc3)cc2n(CCC)c1=O
Ans: 11

Q: Continue with COc1cc(NC(=O)COc2ccc(-c3cc4c([nH]3)c(=O)n(C)c(=O)n4C)cc2)nc(OC)n1
Ans: 12

Q: Continue with CCCn1c(=O)c2[nH]c(-c3ccc(OCC(=O)NCc4ccccc4)cc3)c(Cl)c2n(CCC)c1=O
Ans: 10

---

Let's go through some Ki measurements on Adenosine receptor A2a (Homo sapiens) together.
Sequence (P29274 whole entry): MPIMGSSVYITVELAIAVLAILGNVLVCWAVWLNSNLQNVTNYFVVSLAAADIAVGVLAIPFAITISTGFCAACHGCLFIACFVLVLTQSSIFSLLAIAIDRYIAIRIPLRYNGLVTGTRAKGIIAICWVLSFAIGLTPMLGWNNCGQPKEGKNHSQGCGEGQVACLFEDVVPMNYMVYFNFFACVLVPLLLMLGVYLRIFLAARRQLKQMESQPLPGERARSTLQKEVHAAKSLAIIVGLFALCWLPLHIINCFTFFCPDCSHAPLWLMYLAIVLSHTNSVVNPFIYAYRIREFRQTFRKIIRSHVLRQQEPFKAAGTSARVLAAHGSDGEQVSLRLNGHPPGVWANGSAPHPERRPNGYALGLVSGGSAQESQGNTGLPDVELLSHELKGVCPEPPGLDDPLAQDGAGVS

Q: Returns the measured Ki for the input molecule. Input: CCCn1c(=O)c2[nH]c(-c3ccc(OCC(=O)Nc4ccc(C)cc4)cc3)c(Cl)c2n(CCC)c1=O
Ans: 32.4 nM

Q: Continue with CCn1c(=O)c2[nH]c(-c3ccc(OCC(=O)Nc4ccccc4)cc3)cc2n(CC)c1=O
Ans: 186 nM

Q: Continue with Cn1c(=O)c2[nH]c(-c3ccc(OCC(=O)O)cc3)cc2n(C)c1=O
Ans: 4170 nM

Q: Continue with CCCn1c(=O)c2[nH]c(-c3ccc(OCC(=O)Nc4ccc(F)cc4)cc3)cc2n(C)c1=O
Ans: 66.1 nM

Q: Continue with CCCn1c(=O)c2[nH]c(-c3ccc(OCC(=O)Nc4ccccc4Cl)cc3)c(Cl)c2n(CCC)c1=O
Ans: 263 nM

---

Please provide measured inhibition for the entries that follow.
STUDY_TARGET: Adenosine receptor A2b (Homo sapiens) (UniProt P29275)
ASSAY_PROTOCOL: Displacement of [3H]DPCPX from recombinant human adenosine A2B receptor expressed in HEK293 cells at 0.1 uM
Assay type: cell-based
Please state the value followed by its unit.

Q: Returns the measured inhibition for the input compound. Input: CC(Oc1ccc(-c2cc3c([nH]2)c(=O)n(C)c(=O)n3C)cc1)C(=O)Nc1ccc(F)cc1 (stereo not given)
Ans: 99%

Q: Continue with CCCn1c(=O)c2[nH]c(-c3ccc(OCC(=O)Nc4ccc(Cl)cc4)cc3)c(Cl)c2n(CCC)c1=O
Ans: 80%

Q: Continue with CCCn1c(=O)c2[nH]c(-c3ccc(OCC(=O)NCc4ccccc4)cc3)cc2n(CCC)c1=O
Ans: 95%

Q: Continue with CCCn1c(=O)c2[nH]c(-c3ccc(OCC(=O)Nc4ccccc4)cc3)c(Br)c2n(CCC)c1=O
Ans: 73%

Q: Continue with CCCn1c(=O)c2[nH]c(-c3ccc(OCC(=O)O)cc3)c(Br)c2n(CCC)c1=O
Ans: 48%
